// data source = the supplement of paper PMC8960247

# Tested on: 621-102 (TSC2-deficient);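 note: immortalized renal angiomyolipoma cells stably carrying empty vector or TSC2, dosed in 384-well plates in DMEM, viability normalized to vehicle-treated wells within each plate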
# run.description: relative viability vs DMSO; higher = less cytotoxic
# condition.description: 0.1 µM; serum: 10% FBS; 72 h
Where a name gives a salt, the structure may show the parent alone.
Entries and their relative viability values follow.

{"molecule": "C=CC(=O)Nc1cccc(Sc2nc(Nc3ccc(N4CCN(C)CC4)cc3)ncc2Cl)c1 [WZ8040]", "subject.of.test": "621-102 (TSC2-deficient)", "value.unit": "%", "relative viability": 95.9}
{"molecule": "Cc1cc(Nc2cc(N3CCN(C)CC3)nc(Sc3ccc(NC(=O)C4CC4)cc3)n2)n[nH]1 [VX-680 (MK-0457)]", "subject.of.test": "621-102 (TSC2-deficient)", "value.unit": "%", "relative viability": 81.4}
{"molecule": "CCN1CCN(Cc2ccc(-c3cc4c(N[C@H](C)c5ccccc5)ncnc4[nH]3)cc2)CC1 [AEE788]", "subject.of.test": "621-102 (TSC2-deficient)", "value.unit": "%", "relative viability": 104}
{"molecule": "CN1[C@@H]2CC[C@H]1C[C@@H](OC(=O)c1c[nH]c3ccccc13)C2 [Tropisetron HCl]", "subject.of.test": "621-102 (TSC2-deficient)", "value.unit": "%", "relative viability": 106}
{"molecule": "O=C1Nc2ccccc2/C1=C1/Nc2ccccc2C1=O [Indirubin]", "subject.of.test": "621-102 (TSC2-deficient)", "value.unit": "%", "relative viability": 87.8}
{"molecule": "COc1ccccc1N1CCN(CC(O)COc2cccc3ccccc23)CC1 (centres undefined) [Naftopidil]", "subject.of.test": "621-102 (TSC2-deficient)", "value.unit": "%", "relative viability": 106}
{"molecule": "Oc1ccc(-c2nc(-c3ccc(F)cc3)c(-c3ccncc3)[nH]2)cc1", "subject.of.test": "621-102 (TSC2-deficient)", "value.unit": "%", "relative viability": 105}
{"molecule": "CCOc1cc2ncc(C#N)c(Nc3ccc(F)c(Cl)c3)c2cc1NC(=O)/C=C/CN(C)C [Pelitinib]", "subject.of.test": "621-102 (TSC2-deficient)", "value.unit": "%", "relative viability": 107}
{"molecule": "O=C1NC(=O)C(c2ccccc2)(c2ccccc2)N1 [Phenytoin]", "subject.of.test": "621-102 (TSC2-deficient)", "value.unit": "%", "relative viability": 105}

---

# Test system: UMB1949 (TSC2-deficient);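 note: renal angiomyolipoma cell lines screened in 384-well plates, viability normalized per plate to DMSO-treated cells, each plate carrying 50 nM rapamycin and 1 µM staurosporine controls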
# run.description: relative viability vs DMSO (fraction); higher = less cytotoxic
# condition.description: 40 nM; serum: 0.1% FBS; 72 h
outcome.measure: relative viability

{"compound.string": "COc1ccc(S(=O)(=O)N(C(C)=O)c2ccccc2/C=C/c2cc[n+]([O-])cc2)cc1", "reported.measurement": 0.985}
{"compound.string": "CO[C@H]1C[C@@H]2CC[C@@H](C)[C@@](O)(O2)C(=O)C(=O)N2CCCC[C@H]2C(=O)O[C@H]([C@H](C)C[C@@H]2CC[C@@H](OC(=O)C(C)(CO)CO)[C@H](OC)C2)CC(=O)[C@H](C)/C=C(\\C)[C@@H](O)[C@@H](OC)C(=O)[C@H](C)C[C@H](C)/C=C/C=C/C=C/1C", "reported.measurement": 0.816}
{"compound.string": "NC(=O)Nc1cc(-c2cccc(F)c2)sc1C(=O)N[C@H]1CCCNC1", "reported.measurement": 0.00441}
